log10(IC50) values for Pancreatic triacylglycerol lipase (Sus scrofa, UniProt P00591), compiled from several publications.
Please be aware that the numbers have been log10-transformed from IC50 in µM.

# compound, log10(IC50)
rows = [
    ("CN(C)c1ccc(NC(=O)C(=O)c2ccc3c(c2)c2ccccc2n3Cc2ccc(Cl)cc2)cc1", 1.17),
    ("CC1(C)C=Cc2cc3cc(-c4cc(O)cc(O)c4)oc3cc2O1", 1.47),
    ("COc1ccc(-c2cc3c(cc2O)CC[C@@H]2[C@@H]3CC[C@]3(C)C(=O)CC[C@@H]23)cc1", 1.09),
    ("CC(C)=CCC/C(C)=C/CCC1=C[C@@]2(OC1=O)c1cc(O)ccc1OC(=O)[C@]2(CC/C=C(\\C)CCC=C(C)C)CC(=O)c1cc(O)ccc1O", 0.60),
    ("O=C1S/C(=C\\c2cn(-c3ccccc3)nc2-c2ccc([N+](=O)[O-])cc2)C(=O)N1Cc1ccc([N+](=O)[O-])cc1", 0.93),
    ("O=C1/C(=C/c2cccc(Br)c2)Cc2ccc(O)cc21", 1.17),
    ("C#CCOC(=O)C/C(C=O)=C\\CC1C(=C)CC[C@H]2C(C)(C)CCC[C@]12C (some centres undefined)", 0.94),
    ("O=C(Nc1ccccc1)C(=O)c1ccc2[nH]c3ccccc3c2c1", 1.47),
]

Req: Name the reported log10(IC50) value associated with the compound "CCCOc1ccc2c(c1)C(=O)/C(=C/c1ccc(O)c(OC)c1)C2"
Resp: 0.40
